# assayedSystem: Alpha-2C adrenergic receptor (Homo sapiens)
# experimentDescription: compounds altering alpha2C-coupled GIRK flux – cell-based, HEK293 alpha2C/GIRK1/2, thallium flux, primary screen (AID 624);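 further: slope of fluorescence ratio to pre-addition baseline per second over 15 to 24 s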
# studyConditions: thallium flux BTC fluorescence, at 10 µM, actives lie on both sides
outcomeMeasure: slope
Respond using a number only.

Illustrative cases are given below, each with its answer.
>>> print(df.to_string())
                                   compound  outcomemeasure  measvalue
0                 CCNc1ccc2c(Cl)cc(=O)oc2c1           slope    0.00496
1  CC(=O)c1c(C)nn(CC(O)COc2ccc3c(c2)CCC3)c1C (stereo unspecified)           slope    0.00662
2              c1n[nH]c(SCCCCSc2ncn[nH]2)n1           slope    0.00417

slope for Cc1nn(Cc2ccccc2)c(C)c1NC(=O)c1cc(-c2ccco2)on1 ?
0.00588
